Test system: NCI-H460 cells (non-small-cell lung cancer)
PROTOCOL_NOTES: Cytotoxicity assay (MTS reduction), NCI-H460
Assay type: cell-based, human
EXPERIMENTAL_SETUP: Homo sapiens, NCI-H460, 72 h; 4 μg/mL, 3 days, % of DMSO control; read-out: Growth percentage NCI-H460 (Lung)

{"SMILES_STRING": "COc1ccc(-c2cnoc2-c2ccc(OC(C)C)cc2OCCCCN2CCOCC2)cc1", "UNIT_SYMBOL": "%", "activity at 4 µg/mL": 52}
{"SMILES_STRING": "COc1ccc(-c2cnoc2-c2ccc(OC(C)C)cc2OCCCCN2CCCC2)cc1", "UNIT_SYMBOL": "%", "activity at 4 µg/mL": 81}
{"SMILES_STRING": "COc1ccc(-c2cnoc2-c2ccc(OC(C)C)cc2OCCCCN2CCNCC2)cc1", "UNIT_SYMBOL": "%", "activity at 4 µg/mL": 29}
{"SMILES_STRING": "COc1ccc(-c2cnoc2-c2ccc(OC(C)C)cc2OCCCCCCCN2CCCCC2)cc1", "UNIT_SYMBOL": "%", "activity at 4 µg/mL": 8}

====

Entries and their viability at 3 days, 10 µM values follow.
PROTOCOL_NOTES: Cell viability by MTT assay in hADSCs
Type: cell-based, human
EXPERIMENTAL_SETUP: human, human adipose tissue derived stem cells (hADSCs), % of control

{"COMPOUND": "COc1ccc(-c2cnoc2-c2ccc(OC(C)C)cc2OCCCCCCN2CCCC2)cc1", "viability at 3 days, 10 µM": "64%"}
{"COMPOUND": "CC(C)Oc1ccc2c(=O)c(-c3ccccc3)coc2c1 [Ipriflavone, reference compound]", "viability at 3 days, 10 µM": "77%"}
{"COMPOUND": "COc1ccc(-c2cnoc2-c2ccc(OC(C)C)cc2OCCCCCCCN2CCCC2)cc1", "viability at 3 days, 10 µM": "63%"}
{"COMPOUND": "COc1ccc(-c2cnoc2-c2ccc(OC(C)C)cc2OCCCCCCCN2CCCCC2)cc1", "viability at 3 days, 10 µM": "58%"}
{"COMPOUND": "COc1ccc(-c2cnoc2-c2ccc(OCCCCCCN3CCNCC3)cc2O)cc1", "viability at 3 days, 10 µM": "64%"}
{"COMPOUND": "COc1ccc(-c2cnoc2-c2ccc(OC(C)C)cc2OCCCCCCCN2CCNCC2)cc1", "viability at 3 days, 10 µM": "68%"}

====

System: SF-268 cells (glioblastoma cells)
PROTOCOL_NOTES: Cytotoxicity assay (MTS reduction), SF-268
Format: cell-based, human
EXPERIMENTAL_SETUP: Homo sapiens, SF-268, 72 h; 4 μg/mL, 3 days, % of DMSO control; read-out: Growth percentage SF-268 (CNS)
Threshold 30%. activity at 4 µg/mL below it: Met. activity at 4 µg/mL at it or above: Not met.

{"MOLECULE": "COc1ccc(-c2cnoc2-c2ccc(OC(C)C)cc2OCCCCCCCN2CCOCC2)cc1 [5j]", "TESTED_ON": "SF-268 cells (glioblastoma cells)", "GROUP": "Not met"}
{"MOLECULE": "COc1ccc(-c2cnoc2-c2ccc(OC(C)C)cc2OCCCCN2CCOCC2)cc1 [5b]", "TESTED_ON": "SF-268 cells (glioblastoma cells)", "GROUP": "Not met"}
{"MOLECULE": "COc1ccc(-c2cnoc2-c2ccc(OC(C)C)cc2OCCCCCCCN2CCCCC2)cc1 [5l]", "TESTED_ON": "SF-268 cells (glioblastoma cells)", "GROUP": "Met"}
{"MOLECULE": "COc1ccc(-c2cnoc2-c2ccc(OC(C)C)cc2OCCCCN2CCCC2)cc1 [5a]", "TESTED_ON": "SF-268 cells (glioblastoma cells)", "GROUP": "Not met"}
{"MOLECULE": "COc1ccc(-c2cnoc2-c2ccc(OC(C)C)cc2OCCCCN2CCNCC2)cc1 [5c]", "TESTED_ON": "SF-268 cells (glioblastoma cells)", "GROUP": "Not met"}
{"MOLECULE": "COc1ccc(-c2cnoc2-c2ccc(OC(C)C)cc2OCCCCCCN2CCNCC2)cc1 [5g]", "TESTED_ON": "SF-268 cells (glioblastoma cells)", "GROUP": "Met"}
{"MOLECULE": "COc1ccc(-c2cnoc2-c2ccc(OC(C)C)cc2OCCCCCCCN2CCNCC2)cc1 [5k]", "TESTED_ON": "SF-268 cells (glioblastoma cells)", "GROUP": "Met"}
{"MOLECULE": "COc1ccc(-c2cnoc2-c2ccc(OC(C)C)cc2OCCCCCCN2CCOCC2)cc1 [5f]", "TESTED_ON": "SF-268 cells (glioblastoma cells)", "GROUP": "Not met"}
{"MOLECULE": "COc1ccc(-c2cnoc2-c2ccc(OC(C)C)cc2OCCCCN2CCCCC2)cc1 [5d]", "TESTED_ON": "SF-268 cells (glioblastoma cells)", "GROUP": "Not met"}
{"MOLECULE": "COc1ccc(-c2cnoc2-c2ccc(OCCCCCCN3CCNCC3)cc2O)cc1 [8a]", "TESTED_ON": "SF-268 cells (glioblastoma cells)", "GROUP": "Not met"}
{"MOLECULE": "COc1ccc(-c2cnoc2-c2ccc(OC(C)C)cc2OCCCCCCN2CCCC2)cc1 [5e]", "TESTED_ON": "SF-268 cells (glioblastoma cells)", "GROUP": "Not met"}
{"MOLECULE": "COc1ccc(-c2cnoc2-c2ccc(OC(C)C)cc2OCCCCCCN2CCCCC2)cc1 [5h]", "TESTED_ON": "SF-268 cells (glioblastoma cells)", "GROUP": "Met"}

====

Entries and their Cell cytotoxicity (3 days, LDH) values follow.
Tested on: Human adipose tissue derived stem cells (hADSCs)
PROTOCOL_NOTES: Cytotoxicity assay by lactate dehydrogenase (LDH) leakage in hADSCs
Assay type: cell-based
EXPERIMENTAL_SETUP: 10 μM, % of total cell toxicity

{"MOLECULE": "COc1ccc(-c2cnoc2-c2ccc(OC(C)C)cc2OCCCCCCCN2CCNCC2)cc1 [5k]", "UNIT_SYMBOL": "%", "Cell cytotoxicity (3 days, LDH)": 0}
{"MOLECULE": "COc1ccc(-c2cnoc2-c2ccc(OC(C)C)cc2OCCCCCCCN2CCCCC2)cc1 [5l]", "UNIT_SYMBOL": "%", "Cell cytotoxicity (3 days, LDH)": 0}
{"MOLECULE": "COc1ccc(-c2cnoc2-c2ccc(OC(C)C)cc2OCCCCCCN2CCOCC2)cc1 [5f]", "UNIT_SYMBOL": "%", "Cell cytotoxicity (3 days, LDH)": 17}
{"MOLECULE": "COc1ccc(-c2cnoc2-c2ccc(OCCCCCCN3CCNCC3)cc2O)cc1 [8a]", "UNIT_SYMBOL": "%", "Cell cytotoxicity (3 days, LDH)": 0}
{"MOLECULE": "COc1ccc(-c2cnoc2-c2ccc(OC(C)C)cc2OCCCCN2CCNCC2)cc1 [5c]", "UNIT_SYMBOL": "%", "Cell cytotoxicity (3 days, LDH)": 33}
{"MOLECULE": "COc1ccc(-c2cnoc2-c2ccc(OC(C)C)cc2OCCCCCCN2CCNCC2)cc1 [5g]", "UNIT_SYMBOL": "%", "Cell cytotoxicity (3 days, LDH)": 0}
